Reference for the values: patent US8633245B2

Entries and their Inhibition Rate of PAI-1 Activity (%) values follow.
molecular target: recombinant human PAI-1 (Homo sapiens); construct: purchased Molecular Innovations, Inc; assay: Test Example 2: human PAI-1 inhibitory activity (tPA fluorogenic substrate, pH 7.4 HEPES buffer); assay type: biochemical; details: human PAI-1; compound concentration 0.3 μM
Write the value in % as a bare number.

Example entries and their recorded answers appear below.
{"COMPOUND": "CC(C)(C)c1ccc(Oc2cc(Oc3ccc(OC(F)(F)F)cc3)ccc2OCC(=O)O)cc1", "TARGET_OF_ASSAY": "recombinant human PAI-1 (Homo sapiens)", "Inhibition Rate of PAI-1 Activity (%)": 12}
{"COMPOUND": "O=C(O)COc1cc(Oc2ccc(OC(F)(F)F)cc2)ccc1OCCCCc1ccccc1", "TARGET_OF_ASSAY": "recombinant human PAI-1 (Homo sapiens)", "Inhibition Rate of PAI-1 Activity (%)": 8}
{"COMPOUND": "CC(C)(C)c1cccc(Oc2ccc(-c3ccc(OC(F)(F)F)cc3)cc2/C=C/C(=O)O)c1", "TARGET_OF_ASSAY": "recombinant human PAI-1 (Homo sapiens)", "Inhibition Rate of PAI-1 Activity (%)": 12}

Form: compound = CC(C)(C)c1ccc(Oc2cc(Nc3ccc(OC(F)(F)F)cc3)ccc2OCC(=O)O)cc1 ; Inhibition Rate of PAI-1 Activity (%) = 12

Form: compound = O=C(O)C(=O)N(Cc1ccc2ccccc2c1)c1ccc(-c2ccc(OC(F)(F)F)cc2)cc1 ; Inhibition Rate of PAI-1 Activity (%) = 11

Form: compound = CC(C)(C)c1cccc(Oc2ccc(-c3ccc(OC(F)(F)F)cc3)cc2CCC(=O)O)c1 ; Inhibition Rate of PAI-1 Activity (%) = 11

----------
target: recombinant human PAI-1 (Homo sapiens, UniProt P05121); construct: purchased Molecular Innovations, Inc; test: Test Example 2: human PAI-1 inhibitory activity (tPA fluorogenic substrate, pH 7.4 HEPES buffer); assay type: biochemical; settings: human PAI-1; compound concentration 0.3 μM
Sequence (P05121 24-402): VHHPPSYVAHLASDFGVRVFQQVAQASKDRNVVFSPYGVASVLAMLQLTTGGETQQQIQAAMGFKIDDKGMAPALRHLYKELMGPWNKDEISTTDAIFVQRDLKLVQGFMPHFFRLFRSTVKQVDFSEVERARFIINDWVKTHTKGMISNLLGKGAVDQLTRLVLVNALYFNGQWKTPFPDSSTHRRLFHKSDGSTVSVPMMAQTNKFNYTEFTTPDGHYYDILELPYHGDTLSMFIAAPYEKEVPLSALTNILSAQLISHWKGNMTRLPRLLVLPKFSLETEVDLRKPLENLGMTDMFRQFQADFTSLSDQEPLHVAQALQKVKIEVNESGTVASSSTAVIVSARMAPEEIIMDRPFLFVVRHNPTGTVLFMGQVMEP
Entries and their Inhibition Rate of PAI-1 Activity (%) values follow.
Write the value in % as a bare number.

Example entries and their recorded answers appear below.
{"MOLECULE": "O=C(O)C(=O)N(Cc1ccc(-c2ccc(OC(F)(F)F)cc2)cc1)c1ccccc1-c1ccccc1", "Inhibition Rate of PAI-1 Activity (%)": 9}
{"MOLECULE": "CC(C)(C)c1ccc(Oc2ccc(-c3ccc(OC(F)(F)F)cc3)cc2N(CCCCc2ccccc2)C(=O)C(=O)O)cc1", "Inhibition Rate of PAI-1 Activity (%)": 21}
{"MOLECULE": "CC(C)Oc1ccc(-c2ccc(OCC(=O)O)c(Oc3ccc(C(C)(C)C)cc3)c2)cc1", "Inhibition Rate of PAI-1 Activity (%)": 8}
{"MOLECULE": "O=C(O)CCc1ccc(-c2ccc(OC(F)(F)F)cc2)cc1Oc1ccc(C(F)(F)F)cc1", "Inhibition Rate of PAI-1 Activity (%)": 11}
{"MOLECULE": "CC(C)(C)c1ccc(Oc2cc(-c3ccc(C#N)cc3)ccc2OCC(=O)O)cc1", "Inhibition Rate of PAI-1 Activity (%)": 7}
{"MOLECULE": "CN(CC(=O)O)c1ccc(-c2ccc(OC(F)(F)F)cc2)cc1Oc1ccc(C(C)(C)C)cc1", "Inhibition Rate of PAI-1 Activity (%)": 21}
{"MOLECULE": "CCCCCCOc1ccc(-c2ccc(OC(F)(F)F)cc2)cc1OC(CCCCCC)C(=O)O (stereo not drawn)", "Inhibition Rate of PAI-1 Activity (%)": 9}
{"MOLECULE": "O=C(O)C(=O)N(CCCCc1ccccc1)c1cc(-c2ccc(OC(F)(F)F)cc2)ccc1OC1CCCC1", "Inhibition Rate of PAI-1 Activity (%)": 20}
{"MOLECULE": "CC(C)(C)c1ccc(Oc2cc(-c3ccc(OC(F)(F)F)cc3)ccc2N(CCCCc2ccccc2)C(=O)C(=O)O)cc1", "Inhibition Rate of PAI-1 Activity (%)": 30}
{"MOLECULE": "CCCCCOc1ccc(-c2ccc(OCC(=O)O)c(Oc3ccc(C(C)(C)C)cc3)c2)cc1", "Inhibition Rate of PAI-1 Activity (%)": 3}

Readout Inhibition Rate of PAI-1 Activity (%) for CCCCCCCCCCN(C(=O)C(=O)O)c1ccc(-c2ccc(OC(F)(F)F)cc2)cc1 , test system recombinant human PAI-1 (Homo sapiens, UniProt P05121), was 34

Readout Inhibition Rate of PAI-1 Activity (%) for CC(C)(C)c1ccc(Sc2cc(-c3ccc(OC(F)(F)F)cc3)ccc2CC(=O)O)cc1 , test system recombinant human PAI-1 (Homo sapiens, UniProt P05121), was 21
